Ref: patent US20240246932A1

Reported IC50 values follow for various compounds
# target_system: human NaV 1.8 channels stably expressed in HEK 293 cells (Homo sapiens (Human), UniProt Q9Y5Y9)
# Sequence (Q9Y5Y9 whole entry): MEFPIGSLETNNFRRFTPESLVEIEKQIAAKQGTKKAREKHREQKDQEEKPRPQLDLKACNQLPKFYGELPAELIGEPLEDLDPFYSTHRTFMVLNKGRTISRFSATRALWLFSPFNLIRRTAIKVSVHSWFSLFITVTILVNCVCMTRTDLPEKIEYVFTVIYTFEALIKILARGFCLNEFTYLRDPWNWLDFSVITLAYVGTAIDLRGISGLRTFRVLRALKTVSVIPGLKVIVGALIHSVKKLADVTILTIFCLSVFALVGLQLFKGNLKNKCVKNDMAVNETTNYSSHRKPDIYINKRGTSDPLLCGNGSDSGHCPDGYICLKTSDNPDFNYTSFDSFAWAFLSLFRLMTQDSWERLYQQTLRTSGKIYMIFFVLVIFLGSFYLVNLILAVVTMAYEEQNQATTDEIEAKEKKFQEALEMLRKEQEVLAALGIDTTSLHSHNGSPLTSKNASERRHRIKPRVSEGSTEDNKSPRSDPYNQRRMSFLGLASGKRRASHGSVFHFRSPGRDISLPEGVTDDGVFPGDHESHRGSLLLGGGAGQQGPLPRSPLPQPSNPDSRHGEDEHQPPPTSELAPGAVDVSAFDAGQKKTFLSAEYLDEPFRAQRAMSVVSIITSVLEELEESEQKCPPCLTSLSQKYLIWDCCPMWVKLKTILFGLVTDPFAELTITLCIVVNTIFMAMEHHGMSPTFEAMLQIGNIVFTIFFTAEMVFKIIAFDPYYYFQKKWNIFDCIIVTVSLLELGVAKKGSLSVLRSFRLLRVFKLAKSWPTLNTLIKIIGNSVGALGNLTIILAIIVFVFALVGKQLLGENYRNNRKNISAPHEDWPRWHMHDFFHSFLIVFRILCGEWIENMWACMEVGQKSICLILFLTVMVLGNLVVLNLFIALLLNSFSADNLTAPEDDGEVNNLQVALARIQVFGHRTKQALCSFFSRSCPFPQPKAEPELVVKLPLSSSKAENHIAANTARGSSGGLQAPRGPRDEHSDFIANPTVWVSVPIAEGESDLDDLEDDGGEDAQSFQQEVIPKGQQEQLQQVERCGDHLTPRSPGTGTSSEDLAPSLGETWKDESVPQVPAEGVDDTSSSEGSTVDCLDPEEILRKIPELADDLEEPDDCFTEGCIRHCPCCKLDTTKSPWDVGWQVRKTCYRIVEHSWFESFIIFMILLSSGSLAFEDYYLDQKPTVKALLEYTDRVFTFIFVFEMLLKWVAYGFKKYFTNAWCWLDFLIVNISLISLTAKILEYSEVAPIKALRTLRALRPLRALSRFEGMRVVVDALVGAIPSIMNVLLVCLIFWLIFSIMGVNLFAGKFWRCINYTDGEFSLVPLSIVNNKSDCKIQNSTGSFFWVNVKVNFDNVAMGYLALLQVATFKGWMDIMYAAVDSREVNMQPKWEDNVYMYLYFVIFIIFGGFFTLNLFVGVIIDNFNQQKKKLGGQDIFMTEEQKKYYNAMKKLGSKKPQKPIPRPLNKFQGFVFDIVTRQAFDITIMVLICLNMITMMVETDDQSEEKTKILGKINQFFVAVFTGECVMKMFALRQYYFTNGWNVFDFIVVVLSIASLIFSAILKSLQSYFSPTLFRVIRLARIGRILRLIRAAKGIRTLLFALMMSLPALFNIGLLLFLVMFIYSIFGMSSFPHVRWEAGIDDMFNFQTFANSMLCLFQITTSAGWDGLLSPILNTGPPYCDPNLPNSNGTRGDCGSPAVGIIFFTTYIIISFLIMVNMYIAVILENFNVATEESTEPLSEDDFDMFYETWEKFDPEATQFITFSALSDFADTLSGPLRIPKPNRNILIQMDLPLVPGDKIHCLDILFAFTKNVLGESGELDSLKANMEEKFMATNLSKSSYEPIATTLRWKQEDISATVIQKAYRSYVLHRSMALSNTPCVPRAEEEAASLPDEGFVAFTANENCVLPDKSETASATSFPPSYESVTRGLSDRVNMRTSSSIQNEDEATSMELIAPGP
# protocol: Nav1.8 Qube automated patch-clamp assay
# Type: cell-based
# conditions_used: human NaV1.8 in HEK 293 cells, whole-cell voltage clamp, room temperature; read-out: IC50 values (nM) for Examples in the Nav1.8 Qube Assay

Below: 8 compounds and their reported IC50.
                                   compound  endpoint_name   result
0  C[C@@H]1C(=O)NCCN1C(=O)NC(c1ccc(C#N)c(Cl)c1)c1cnc(C(F)(F)F)c(Cl)c1 (single isomer, unassigned) [Example 24A]           IC50  22.3 nM
1  C[C@@H]1C(=O)NCCN1C(=O)NC(c1cnc(OCC(F)(F)F)c(F)c1)c1ccc(F)c(C(F)(F)F)n1 (single isomer, unassigned) [Example 48B]           IC50   209 nM
2  C[C@@H]1C(=O)NCCN1C(=O)NC(c1cnc(OC(F)F)nc1)c1ccc(F)c(Cl)c1F (single isomer, unassigned) [Example 74B]           IC50  1320 nM
3  C[C@@H]1C(=O)NCCN1C(=O)NC(c1ccc(F)c(Cl)c1)c1cnn(CC(F)(F)F)c1 (single isomer, unassigned) [Example 67B]           IC50    42 nM
4  C[C@@H]1C(=O)NCCN1C(=O)NC(c1ccc(F)c(Cl)c1)c1ccc2nc(C(F)(F)F)cn2c1 (single isomer, unassigned) [Example 11B]           IC50   196 nM
5  C[C@@H]1C(=O)NCCN1C(=O)NC(c1ccc(OCC(F)(F)F)nc1)c1cc(F)c(F)c(Cl)c1 (single isomer, unassigned) [Example 7B]           IC50  19.6 nM
6  C[C@@H]1C(=O)NCCN1C(=O)NC(c1ccc(OC(F)F)nc1)c1ccc(F)c(Cl)c1F (single isomer, unassigned) [Example 31B]           IC50  16.1 nM
7  C[C@@H]1C(=O)NCCN1C(=O)NC(c1cnc(C2CC2)c(Cl)c1)c1ccc(F)c(Cl)c1F (single isomer, unassigned) [Example 27B]           IC50  2.88 nM

**Q:** Sample C[C@@H]1C(=O)NCCN1C(=O)NC(c1cnc(C(F)(F)F)c(Cl)c1)c1ccc(Cl)c(C#N)c1 (single isomer, unassigned) [Example 23B] — what was its IC50?
**A:** 6.06 nM

**Q:** Item under review: C[C@@H]1C(=O)NCCN1C(=O)NC(c1cnc(C(F)(F)F)nc1)c1ccc(F)c(Cl)c1 (single isomer, unassigned) [Example 69B] . Reported IC50?
**A:** 23 nM

**Q:** IC50 for C[C@@H]1C(=O)NCCN1C(=O)NC(c1ccc(Cl)c(F)c1)c1ccc(F)c(C(F)(F)F)n1 (single isomer, unassigned) [Example 53A] ?
**A:** 68.9 nM

**Q:** I have this compound here, C[C@@H]1C(=O)NCCN1C(=O)NC(c1ccc(C(F)(F)F)nc1)c1ccc(F)c(Cl)c1 (single isomer, unassigned) [Example 16A] , and I need its recorded IC50.
**A:** 13.5 nM

* * *

# target_system: human NaV 1.8 channels stably expressed in HEK 293 cells (Homo sapiens (Human))
# protocol: Nav1.8 Qube automated patch-clamp assay
# Assay type: cell-based
# conditions_used: human NaV1.8 in HEK 293 cells, whole-cell voltage clamp, room temperature; read-out: IC50 values (nM) for Examples in the Nav1.8 Qube Assay
log10 IC50 values, listed per item
Plainly stated, the numbers are log10 of IC50 given in nM.

In [3]: df
Out[3]:
                                   compound  endpoint_name  numeric_result
0  C[C@@H]1C(=O)NCCN1C(=O)NC(c1cnc(C(F)(F)F)c(Cl)c1)c1ccc(F)c(C(F)(F)F)n1 (single isomer, unassigned) [Example 82A]     log10 IC50            1.24
1  C[C@@H]1C(=O)NCCN1C(=O)NC(c1ccc(C#N)cc1)c1ccc(Cl)c(C(F)(F)F)n1 (single isomer, unassigned) [Example 76B]     log10 IC50            2.22

**Q:** Item: C[C@@H]1C(=O)NCCN1C(=O)NC(c1ccc(C#N)cc1)c1ccc(Cl)c(C(F)(F)F)n1 (single isomer, unassigned) [Example 76A] Test system: human NaV 1.8 channels stably expressed in HEK 293 cells (Homo sapiens (Human)) Read-out: log10 IC50 Value: ?
**A:** 0.71

**Q:** Hi! What's the reported log10 IC50 for CC(C)C1C(=O)NCCN1C(=O)NC(c1ccc(C(F)(F)F)nc1)c1ccc(F)c(Cl)c1F (single isomer, unassigned) [Example 39A] on human NaV 1.8 channels stably expressed in HEK 293 cells (Homo sapiens (Human))?
**A:** 3.42

**Q:** Request - read-out log10 IC50 | tested on human NaV 1.8 channels stably expressed in HEK 293 cells (Homo sapiens (Human)) | compound C[C@@H]1C(=O)NCCN1C(=O)NC(c1ccnc(OCC(F)(F)F)c1)c1ccc(F)c(Cl)c1 (single isomer, unassigned) [Example 71A]
**A:** 1.92

**Q:** Give the reported log10 IC50 for O=C1CN(C(=O)NC(c2ccc(OCC(F)(F)F)nc2)c2ccc(F)c(Cl)c2)CCN1 (single isomer, unassigned) [Example 2A] (system: human NaV 1.8 channels stably expressed in HEK 293 cells (Homo sapiens (Human))).
**A:** 0.95
